- target-system: bdSUMO Mut14-MBP fusion protein
measured-property: cleavage of the SUMO fusion protein (% cleavage)
Answers are plain numbers, in % cleavage.

bdSENP1^MutB protease (protein) PFVPLTDEDEDNVRHALGGRKRSETLSVHEASSIVITREILQCLNDKEWLNDEVINLYLELLKERELREPNKFLKCHFFNTFFYKKLINGGYDYKSVREWTTKRKLGYNLIDCDKIFVPIHKDVHWCLAVINIKEKKFQYLDSLGYMDMKALRILAKYLVDEVKDKSGKQIDVHAWKQEGVQNLPLQENGWDCGMFMLKYIDFYSRDMELVFGQKHMSYFRRRTAKEILDLKAG ... 100

With those in mind, consider the next protein.
[ask] Let me know recorded cleavage of the SUMO fusion protein for bdSENP1^MutH (protein) PFVPLTDEDEDNVRHALGGRKPSETLSVHEASAIVITREILQCLNDKEWLNDEVINLYLELLKERELREPNKFLKCHFFNTFFYKKLINGYDYKSVREWTTMRKLGYNLIDCDKIFVPIHKDVHWCLAVINIKEKKFQYLDSLGYMDMKALRILAKYLVDEVKDKSGKQIDVHAWKQEGVQNLPLQENGWDCGMFMLKYIDFYSRDMELVFGQKHMSYFRRRTAKEILDLKAG , thanks.
[reply] 100
